test: amyloid nucleation score (Sup35N fusion, yeast selection) (log enrichment); library NNK1; higher = more nucleation; inactive = no reads after selection;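 further: zero at mode of non-aggregating sequences after 7 days selection at 30°C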
Group membership follows amyloid nucleation score per the scheme low class (below 0.05), middle class (0.05 to below 0.8), high class (0.8 or more)

Challenge: Category of GRATMGRGRCNLFGHKGHGH :
Response given: low class

Challenge: Category of WGICDLKVCVQPCPSSNARI :
Response given: low class

Challenge: Category of NARYYYQSAIADVI :
Response given: middle class

---

# amyloid nucleation score annotations
experiment: amyloid nucleation score (Sup35N fusion, yeast selection) (log enrichment); library NNK1; higher = more nucleation; inactive = no reads after selection

Guide cases for amyloid nucleation score, answers given:
YLCPVRDFNGLYGLVFM -0.756
IRYYVVSSVVDSNS -0.142
RQIGTAFSDYLHGWCVFSFR 3.88
SFLCCRVFLKSRRCRCGFMQ 6.01
QVLVYNDFRYFEFHRDVFLR 8.45

Challenge: Assign amyloid nucleation score to the following record: TVMANKY
Response given: -0.16

Challenge: Assign amyloid nucleation score to the following record: LKRVGSNLNT
Response given: -0.229

Challenge: Assign amyloid nucleation score to the following record: CPVCNTESTCRYPRVGKWDT
Response given: 3.01

Challenge: Assign amyloid nucleation score to the following record: RLRVVL
Response given: -0.537

Challenge: Assign amyloid nucleation score to the following record: GDMFVAKCYSRGDSQISLMF
Response given: 0.368

Challenge: Assign amyloid nucleation score to the following record: RYVETNSGAE
Response given: 0.669

---

assay: amyloid nucleation score (Sup35N fusion, yeast selection) (log enrichment); library NNK3; higher = more nucleation; inactive = no reads after selection
measure: amyloid nucleation score

TQHTTYTPLPHTELRLPYPQ inactive
YVEHAYIRWRSVCKSIFLFS inactive
RGYEQERLWSSVWHFYNHWL 0.405

---

test: amyloid nucleation score (Sup35N fusion, yeast selection) (log enrichment); library NNK3; higher = more nucleation; inactive = no reads after selection
measure: amyloid nucleation score

Guide cases for amyloid nucleation score, answers given:
FRYLNLKKDD inactive
VMSLTR inactive
ILRLSPTFGRQSYSVKVGLK inactive
YEWSYCFNYLCHHYDTNWQR 2.96
VDEADVRKHMT inactive

Challenge: Assign amyloid nucleation score to the following record: QYLTRVHSPEDGTMA
Response given: 0.125

---

# amyloid nucleation score annotations
experiment: amyloid nucleation score (Sup35N fusion, yeast selection) (log enrichment); library NNK1; higher = more nucleation; inactive = no reads after selection
The reply should be a number, written without any unit.

Guide cases for amyloid nucleation score, answers given:
IKLHSEGRIYHINFACRSVC 0.199
KNLVWMDRVQFRLSWAHVRL -1.38
AFLTQTSHSQTT 0.048

Challenge: Assign amyloid nucleation score to the following record: TQSRPLETGCPQLERSGLLA
Response given: -0.692

Challenge: Assign amyloid nucleation score to the following record: GCSLLHLRVWYLSDHIIMRS
Response given: 0.834

Challenge: Assign amyloid nucleation score to the following record: GAPRSCGLAD
Response given: 0.27

Challenge: Assign amyloid nucleation score to the following record: NPGNTN
Response given: 0.17

---

# amyloid nucleation score annotations
assay: amyloid nucleation score (Sup35N fusion, yeast selection) (log enrichment); library NNK2; higher = more nucleation; inactive = no reads after selection
The reply should be a number, written without any unit.

ASLAEKGL -0.497

# evaluate next
Challenge: Assign amyloid nucleation score to the following record: YGRPIIVMYKLLRQNSSSRL
Response given: -0.496

---

experiment: amyloid nucleation score (Sup35N fusion, yeast selection) (log enrichment); library NNK2; higher = more nucleation; inactive = no reads after selection
measure: amyloid nucleation score

LICLSMSQCMDCNLGNSWWV inactive
TITNCP inactive
YLSNKT -0.515
GNRSTVLRSNLDVYLQDGTV 1.51

Challenge: Assign amyloid nucleation score to the following record: SAVIFAESTCV
Response given: -0.512

Challenge: Assign amyloid nucleation score to the following record: RPVDPWLCRKWLVV
Response given: inactive

Challenge: Assign amyloid nucleation score to the following record: KGLAREVRCSQYTTVIFVDR
Response given: 5.27

Challenge: Assign amyloid nucleation score to the following record: YLYGCGNMVVIWRSGRQMDI
Response given: -1.42

Challenge: Assign amyloid nucleation score to the following record: LVRHFIHGSTA
Response given: -1.23

---

assay: amyloid nucleation score (Sup35N fusion, yeast selection) (log enrichment); library NNK3; higher = more nucleation; inactive = no reads after selection
# amyloid nucleation score annotations
The reply should be a number, written without any unit.

LSSYMDYGMSKVYVLWRSTW -0.117

# evaluate next
Challenge: Assign amyloid nucleation score to the following record: YNFTSFLLIAGNAGSSSSRK
Response given: 2.04

---

experiment: amyloid nucleation score (Sup35N fusion, yeast selection) (log enrichment); library NNK2; higher = more nucleation; inactive = no reads after selection
measure: amyloid nucleation score
The reply should be a number, written without any unit.

VSKMGYRDALVAREGLCGVV 0.072
GVPDCLLCVNSIYQGSLSFG 5.24
KQHVRMYWIAALAPMSGRGW 4.45

# evaluate next
Challenge: Assign amyloid nucleation score to the following record: HAMPVYRAEFTLISTIL
Response given: 0.268

---

assay: amyloid nucleation score (Sup35N fusion, yeast selection) (log enrichment); library NNK1; higher = more nucleation; inactive = no reads after selection
# amyloid nucleation score annotations
The reply should be a number, written without any unit.

Guide cases for amyloid nucleation score, answers given:
FEYNRYRLLYTTYLGPVGGI -1.56
DFLDNVFVTSECHVN 0.255

Challenge: Assign amyloid nucleation score to the following record: FGFMKKRRDLSY
Response given: 2.96

Challenge: Assign amyloid nucleation score to the following record: MMFLTNCCFMVLNCYTCVRY
Response given: 3.53

Challenge: Assign amyloid nucleation score to the following record: CACKLVQSIYLCESLGHPRS
Response given: 5.73

---

experiment: amyloid nucleation score (Sup35N fusion, yeast selection) (log enrichment); library NNK3; higher = more nucleation; inactive = no reads after selection
measure: amyloid nucleation score

MNFVPTLRSIVVGRWRDLEV inactive
ISKSHGYLYSNWKTCFSELS inactive
IFVVYFGISTIRNT 1.32
RLSNVSTMGGMRIPDLLEM inactive
IQLKDKNGDL inactive

Challenge: Assign amyloid nucleation score to the following record: RWYWDHVRIDTYVVHSRTWR
Response given: 0.979

Challenge: Assign amyloid nucleation score to the following record: YILGKSKSPFLLKCAVKI
Response given: inactive

Challenge: Assign amyloid nucleation score to the following record: VTCPNFQKIYRQGCYGGFDT
Response given: inactive

Challenge: Assign amyloid nucleation score to the following record: FLPDSFESYEKEVHTMDESS
Response given: inactive

Challenge: Assign amyloid nucleation score to the following record: IRLSQNWGSYVCSNTLNSER
Response given: inactive

---

test: amyloid nucleation score (Sup35N fusion, yeast selection) (log enrichment); library NNK2; higher = more nucleation; inactive = no reads after selection
measure: amyloid nucleation score
The reply should be a number, written without any unit.

HSGLSGTILGWLIFKVEGEE 0.007
YGMVIRCPARVCVQTLFNNA 4.86
NNSMYILYSGYTFGCYTRGL 6.38
NSRISKNNLSRSLT -0.196
CWARMWGYSKCHSRVFSYMS -1.1

Challenge: Assign amyloid nucleation score to the following record: SFSVLLADGQYRCYLLDSVL
Response given: -0.516

Challenge: Assign amyloid nucleation score to the following record: VFEVDLFWRSKFNSCLLPFR
Response given: -0.95

Challenge: Assign amyloid nucleation score to the following record: GITPRKDFFYYTLVDTCLVL
Response given: -0.198

Challenge: Assign amyloid nucleation score to the following record: MKTSLYRRGNPRLYREKSRK
Response given: 1.01

Challenge: Assign amyloid nucleation score to the following record: TCLMVVE
Response given: 0.539

Challenge: Assign amyloid nucleation score to the following record: PYISWGSTGFVNAGRY
Response given: 3.74

Challenge: Assign amyloid nucleation score to the following record: SNLSLMFLLRVSIGDKKEEE
Response given: 7.55

---

assay: amyloid nucleation score (Sup35N fusion, yeast selection) (log enrichment); library NNK1; higher = more nucleation; inactive = no reads after selection
measure: amyloid nucleation score

QSLSLVVPDIVMIKTPN inactive
GGSGDTTSCMLFKRIVRR inactive
DLRFSTRLGHCISVFMRKIW inactive
RTGRAYLWGSWSLEHHNLGG inactive

---

test: amyloid nucleation score (Sup35N fusion, yeast selection) (log enrichment); library NNK1; higher = more nucleation; inactive = no reads after selection
measure: amyloid nucleation score

LLTSMSSGLVDYR inactive
STDVEGRFTEMLSELMLYVD inactive
HWWYFCINP inactive
